system: 324938-238-R-J1-PDC complex spheroid growth, % test/control; experiment: Anticancer human tumor 324938-238-R-J1-PDC patient-derived bladder carcinoma cell line growth inhibition [AhR]; settings: second compound 1 µM; first compound 0.1 µM; stronger effect = lower value
Doc: threshold 60% (exclusive). Items with viability, T/C beneath it return 1.0; others return 0.0.

Here's what some known entries look like.
| Molecule | Qualitative Label |
| --- | --- |
| O=C(c1cc(Cc2n[nH]c(=O)c3ccccc23)ccc1F)N1CCN(C(=O)C2CC2)CC1 + Cc1cncc(-c2nc(NCCc3c[nH]c4ccccc34)c3ncn(C(C)C)c3n2)c1 | 0.0 |
| CC(C)c1c(-c2ccccc2)nc2c(C#N)c[nH]n2c1=O + CC(CO)NC(=O)c1cc(-c2ccc(Cl)cc2)nn(-c2cnn(C)c2)c1=O | 0.0 |
| COc1cc(Nc2ncc3c(n2)-c2ccc(Cl)cc2C(c2c(F)cccc2OC)=NC3)ccc1C(=O)O + CC(CO)NC(=O)c1cc(-c2ccc(Cl)cc2)nn(-c2cnn(C)c2)c1=O | 1.0 |

# strict comparison: is reported viability, T/C < 60%? input = Nc1ccn(C2OC(CO)C(O)C2(F)F)c(=O)n1 (configuration not stated) + CC(CO)NC(=O)c1cc(-c2ccc(Cl)cc2)nn(-c2cnn(C)c2)c1=O
1.0

Query CC1COCCN1c1cc(C2(S(C)(=N)=O)CC2)nc(-c2ccnc3[nH]ccc23)n1 (configuration not stated) + Cc1ccccc1N=Nc1ccc(NC(=O)c2ccnn2C)c(C)c1 next
0.0

Query CC[C@@]1(O)C(=O)OCc2c1cc1n(c2=O)Cc2cc3c(CN(C)C)c(O)ccc3nc2-1 + CC(CO)NC(=O)c1cc(-c2ccc(Cl)cc2)nn(-c2cnn(C)c2)c1=O next
1.0

Query Cn1ncnc1C1c2n[nH]c(=O)c3cc(F)cc(c23)NC1c1ccc(F)cc1 (configuration not stated) + Cc1ccccc1N=Nc1ccc(NC(=O)c2ccnn2C)c(C)c1 next
0.0

----------
tested on: 324938-238-R-J1-PDC complex spheroid growth, % test/control; experiment: Anticancer human tumor 324938-238-R-J1-PDC cell line growth inhibition [AhR]; conditions: curve of first compound; second compound 10 µM;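 note: spheroids exposed to agents for seven days before viability read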
pIC50: −log10 of the molar value.
pIC50 reference

| Molecule | pIC50 |
| --- | --- |
| O=C(C=Cn1cnc(-c2cc(C(F)(F)F)cc(C(F)(F)F)c2)n1)NNc1cnccn1 + Cc1ccccc1N=Nc1ccc(NC(=O)c2ccnn2C)c(C)c1 | 6.76 |
| CC(C)c1c(-c2ccccc2)nc2c(C#N)c[nH]n2c1=O + Cc1cncc(-c2nc(NCCc3c[nH]c4ccccc34)c3ncn(C(C)C)c3n2)c1 | > 7.50 |
| O=C(c1cc(Cc2n[nH]c(=O)c3ccccc23)ccc1F)N1CCN(C(=O)C2CC2)CC1 + Cc1cncc(-c2nc(NCCc3c[nH]c4ccccc34)c3ncn(C(C)C)c3n2)c1 | > 7.50 |

Need pIC50, item Cn1ncnc1C1c2n[nH]c(=O)c3cc(F)cc(c23)NC1c1ccc(F)cc1 (stereo not drawn) + Cc1ccccc1N=Nc1ccc(NC(=O)c2ccnn2C)c(C)c1
< 7.00

Query COc1cc(C2c3cc4c(cc3C(OC3OC5COC(C)OC5C(O)C3O)C3COC(=O)C23)OCO4)cc(OC)c1O (stereo not drawn) + Cc1ccccc1N=Nc1ccc(NC(=O)c2ccnn2C)c(C)c1 next
6.54

Query O=C(c1cc(Cc2n[nH]c(=O)c3ccccc23)ccc1F)N1CCN(C(=O)C2CC2)CC1 + Cc1ccccc1N=Nc1ccc(NC(=O)c2ccnn2C)c(C)c1 next
< 5.00

Query COc1cc(C2c3cc4c(cc3C(OC3OC5COC(C)OC5C(O)C3O)C3COC(=O)C23)OCO4)cc(OC)c1O (stereo not drawn) + CC(CO)NC(=O)c1cc(-c2ccc(Cl)cc2)nn(-c2cnn(C)c2)c1=O next
6.77

Query COc1cccc2c1C(=O)c1c(O)c3c(c(O)c1C2=O)CC(O)(C(=O)CO)CC3OC1CC(N)C(O)C(C)O1 (stereo not drawn) + Cc1cncc(-c2nc(NCCc3c[nH]c4ccccc34)c3ncn(C(C)C)c3n2)c1 next
> 7.50

Query CC(C)CC(NC(=O)C(Cc1ccccc1)NC(=O)c1cnccn1)B(O)O (stereo not drawn) + Cc1cncc(-c2nc(NCCc3c[nH]c4ccccc34)c3ncn(C(C)C)c3n2)c1 next
> 9.02

Query CC1COCCN1c1cc(-c2ccnn2C)c2ccnc(-c3ccn[nH]3)c2n1 (stereo not drawn) + CC(CO)NC(=O)c1cc(-c2ccc(Cl)cc2)nn(-c2cnn(C)c2)c1=O next
7.65

Query Cn1ncnc1C1c2n[nH]c(=O)c3cc(F)cc(c23)NC1c1ccc(F)cc1 (stereo not drawn) + CC(CO)NC(=O)c1cc(-c2ccc(Cl)cc2)nn(-c2cnn(C)c2)c1=O next
7.73

Query O=C(C=Cc1cccc(S(=O)(=O)Nc2ccccc2)c1)NO + Cc1ccccc1N=Nc1ccc(NC(=O)c2ccnn2C)c(C)c1 next
5.55

Query COc1cccc2c1C(=O)c1c(O)c3c(c(O)c1C2=O)CC(O)(C(=O)CO)CC3OC1CC(N)C(O)C(C)O1 (stereo not drawn) + Cc1ccccc1N=Nc1ccc(NC(=O)c2ccnn2C)c(C)c1 next
> 7.50

Query COc1cc(Nc2ncc3c(n2)-c2ccc(Cl)cc2C(c2c(F)cccc2OC)=NC3)ccc1C(=O)O + CC(CO)NC(=O)c1cc(-c2ccc(Cl)cc2)nn(-c2cnn(C)c2)c1=O next
> 7.50

Query COc1ccc([C@@H](O)c2cc(-c3ncnc4cc(N5CCOCC5)ccc34)c(F)cc2Cl)nn1 + Cc1cncc(-c2nc(NCCc3c[nH]c4ccccc34)c3ncn(C(C)C)c3n2)c1 next
> 7.50

Query Nc1ccccc1NC(=O)c1ccc(CNC(=O)OCc2cccnc2)cc1 + Cc1cncc(-c2nc(NCCc3c[nH]c4ccccc34)c3ncn(C(C)C)c3n2)c1 next
> 7.50

Query CCc1c2c(nc3ccc(O)cc13)-c1cc3c(c(=O)n1C2)COC(=O)[C@]3(O)CC + CC(CO)NC(=O)c1cc(-c2ccc(Cl)cc2)nn(-c2cnn(C)c2)c1=O next
> 9.02

Query Nc1ncn(C2CC(O)C(CO)S2)c(=O)n1 (stereo not drawn) + Cc1cncc(-c2nc(NCCc3c[nH]c4ccccc34)c3ncn(C(C)C)c3n2)c1 next
> 9.02

Query CC1COCCN1c1cc(-c2ccnn2C)c2ccnc(-c3ccn[nH]3)c2n1 (stereo not drawn) + Cc1ccccc1N=Nc1ccc(NC(=O)c2ccnn2C)c(C)c1 next
6.49

Query Nc1ccn(C2OC(CO)C(O)C2(F)F)c(=O)n1 (stereo not drawn) + Cc1cncc(-c2nc(NCCc3c[nH]c4ccccc34)c3ncn(C(C)C)c3n2)c1 next
> 7.50

Query Nc1ncn(C2CC(O)C(CO)S2)c(=O)n1 (stereo not drawn) + CC(CO)NC(=O)c1cc(-c2ccc(Cl)cc2)nn(-c2cnn(C)c2)c1=O next
< 6.52

Query CCN(c1cc(-c2ccc(CN3CCOCC3)cc2)cc(C(=O)NCc2c(C)cc(C)[nH]c2=O)c1C)C1CCOCC1 + CC(CO)NC(=O)c1cc(-c2ccc(Cl)cc2)nn(-c2cnn(C)c2)c1=O next
< 5.52

Query CC1(C)CCC(CN2CCN(c3ccc(C(=O)NS(=O)(=O)c4ccc(NCC5CCOCC5)c([N+](=O)[O-])c4)c(Oc4cnc5[nH]ccc5c4)c3)CC2)=C(c2ccc(Cl)cc2)C1 + CC(CO)NC(=O)c1cc(-c2ccc(Cl)cc2)nn(-c2cnn(C)c2)c1=O next
< 5.00

These measurements were taken from PubChem BioAssay AID1918995.
